Molecular target: T1, His-tagged human IGF1R protein (ACRO Biosystems Inc., Cat #: IGR-H5229) (human, UniProt P08069 31-932)
T1 construct: Bought protein; also called hIGF1R-His; not shown: His tag
T1 sequence (P08069 31-932): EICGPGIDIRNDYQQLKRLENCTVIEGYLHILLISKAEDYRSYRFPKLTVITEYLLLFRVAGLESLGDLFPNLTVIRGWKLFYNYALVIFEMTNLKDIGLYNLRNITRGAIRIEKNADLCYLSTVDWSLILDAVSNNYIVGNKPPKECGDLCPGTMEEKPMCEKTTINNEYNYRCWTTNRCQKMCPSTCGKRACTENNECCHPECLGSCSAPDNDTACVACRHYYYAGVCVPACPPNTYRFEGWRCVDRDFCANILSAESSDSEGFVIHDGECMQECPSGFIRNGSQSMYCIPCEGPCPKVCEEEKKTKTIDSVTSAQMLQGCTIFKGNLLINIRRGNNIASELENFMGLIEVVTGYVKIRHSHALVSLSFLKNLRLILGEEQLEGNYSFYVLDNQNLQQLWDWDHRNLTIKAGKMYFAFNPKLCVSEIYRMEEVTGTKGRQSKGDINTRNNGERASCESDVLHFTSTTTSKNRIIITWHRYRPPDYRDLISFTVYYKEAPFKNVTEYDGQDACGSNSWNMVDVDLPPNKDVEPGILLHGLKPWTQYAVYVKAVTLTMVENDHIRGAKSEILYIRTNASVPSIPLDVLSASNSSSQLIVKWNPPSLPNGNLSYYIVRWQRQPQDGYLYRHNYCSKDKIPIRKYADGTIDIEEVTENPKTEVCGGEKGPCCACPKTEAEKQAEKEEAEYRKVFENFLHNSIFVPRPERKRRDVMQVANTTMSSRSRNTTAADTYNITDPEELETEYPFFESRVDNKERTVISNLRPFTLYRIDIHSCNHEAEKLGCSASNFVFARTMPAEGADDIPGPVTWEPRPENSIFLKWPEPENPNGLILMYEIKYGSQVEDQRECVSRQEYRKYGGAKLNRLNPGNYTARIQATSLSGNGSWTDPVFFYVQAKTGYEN
Assay: blocking ELISA on coated hIGF1R-His; blocked ligand: biotinylated human IGF-II
# IC50 annotations
Numeric only. Scale: nM

Before answering, review these 3 worked examples.
{"columns": ["binder", "data-value"],
 "data": [
  ["anti-IGF1R antibody 10G1 (antibody, human IgG1, V domains shown) VH: QVQLVESGGGLVKPGGSLRLSCAASEFTFSDYYMSWIRQSPGKGLEWVSYISNSGSFTNYADSVKGRFTISRDNAKNSLYLQMNSLRAEDSAIYYCVRDQAPVTSKYYYYGMDVWGQGTTVTVSS VL: EIVLTQSPSSLSASVGDRVTITCRASQGIRNDFAWYQQKPGKAPKRLIYAASRLQRGVPSRFSGSGSGTEFTLTISSLQPEDFATYYCLQHNSYPYTFGQGTKLEIK", 5.2],
  ["anti-IGF1R antibody 12D1 (antibody, human IgG1, V domains shown) VH: QVQLVESGGGVVRPGGSLRLSCAASGFTFDDYGMSWVRQVPGKGLEWVSGINWNGGSTDYADSVKGRFTISREKAKNSLYLQMNSLRAEDTALYYCVRDRGAVTRRYYYYGMDVWGQGTTVTVSS VL: DIQMTQSPSSLSASVGDRVTITCRASQDIRNDLGWYQLKPGKAPKRLIYAASRLQSGVPSRFSGSGSGTEFTLTISSLQPEDFATYYCLQHNSYPYTFGQGTKLEIK", 1.6],
  ["anti-IGF1R antibody 10D1 (antibody, human IgG1, V domains shown) VH: QVQLQQSGGGVVRPGGSLRLSCAASGFTFADYGMSWVRQVPGKGLEWVSGINWNGGSTDYADSVKGRFTISRDNAKHSLYLQMNSLRAEDTAFYYCARDRGAVSRRYYYYGMDVWGLGTTVTVSS VL: AIQLTQSPSSLSASVGDRVTITCRASQDIRNDLGWYQLKPGKAPKRLIYAASRLQSGVPSGFSGSGSGTEFTLTISSLQPEDFATYYCLQHNSYPYTFGQGTKLEIK", 1.7]
]}

Exercise: Tell me its IC50 given anti-IGF1R antibody 12A4 (antibody, V domains shown) VH: EVQLVQSGGGEIRPGGSLRLSCAASGFTFADYGMSWVRQAPGEGLEWVSEIDWTGGSKLYADSVKGRFTISRDNAKNSLFLQMNSLRAEDTALYYCVRDRGAVSPKYYYYGMDVWGQGTTVTVSS VL: EIVLTQSPSSLSASVGDRVTITCRASQGIRNDLGWYQQKPGKAPKRLIYAASRLQSGVPSRFSGSGSGTDFTLTISSLQPEDFATYYCLQHNSYPYTFGQGTKLEIK as the entry.
Solution: 1.9
